- Tested on: Vero
- Measurement description: Cytotoxicity against African green monkey Vero cells assessed as reduction in cell viability incubated for 48 hrs by neutral red dye based assay
- Design: species or system Chlorocebus sabaeus
- Condition label: Chlorocebus sabaeus, Vero, 48 h
Measure name: IC50 (µM)
Answers are plain numbers, in µM.

See these solved cases before continuing.
CCCCCCCCCCCCCCC1(O)C(C)=C(C)C2=[N+](Cc3ccc(C#N)cc3)CCCN21 (stereo not given) ... 29
CCCCCCCCCCCCCCC1(O)C=CC2=[N+](C)CCCN21 (stereo not given) ... 17
CCCCCCCCCCCCCCC1(O)C(C)=C(C)C2=[N+](CC(=O)NCCCC)CCCN21 (stereo not given) ... 45

Please give IC50, item by item, for the list that follows.
1. CCCCCCCCCCCCCCC1(O)C(C)=C(C)C2=[N+](Cc3ccc(Br)cc3)CCCN21 (stereo not given)
2. CCCCCCCCCCCCCCc1c(C)c(C)cn1CCCNC
3. CCCCCCCCCCCCCCC1(O)C(C)=C(C)C2=[N+](C)CCCN21 (stereo not given)
4. CCCCCCCCCCCCCCC1(O)C(C)=C(C)C2=[N+](Cc3cccc(C(F)(F)F)c3)CCCN21 (stereo not given)
5. CCCCCCCCCCCCCCc1c(C)c(C)cn1CCCNCc1ccccc1

a:
1. 35
2. 35
3. 39
4. 27
5. 42

Hi there! I need IC50 for each item below, if you can.
1. CCCCCCCCCCCCCCC1(O)C(C)=C(C)C2=[N+](CC(=O)c3cccc(Cl)c3)CCCN21 (stereo not given)
2. CCCCCCCCCCCCCCC1(O)C(C)=C(C)C2=[N+](Cc3ccc([N+](=O)[O-])cc3)CCCN21 (stereo not given)
3. CCCCCCCCCCCCCCC1(O)c2ccccc2C2=[N+](C)CCCN21 (stereo not given)
4. CCCCCCCCCCCCCCC1(O)C(C)=C(C)C2=[N+](CC(=O)OCC)CCCN21 (stereo not given)
5. C#CC[N+]1=C2C(C)=C(C)C(O)(CCCCCCCCCCCCCC)N2CCC1 (stereo not given)

a:
1: 7.7; 2: 36; 3: 42; 4: 44; 5: 35

Parameters: items (list). Returns: IC50 for each item.
1. CCCCCCCCCCCCCCC1(O)C(C)=C(C)C2=[N+](Cc3ccc(Cl)cc3)CCCN21 (stereo not given)
2. CCCCCCCCCCCCCCC1(O)C(C)=C(C)C2=[N+](Cc3ccc(OC)cc3)CCCN21 (stereo not given)
3. CCCCCCCCCCCCCCc1c(C)c(C)cn1CCCN

a:
42
24
44

meta.source: ChEMBL document CHEMBL4828718
